Hey, just so you know, these numbers are from patent US20030119023.

Target: 3x2F ZGS (artificial)
Sequence (chain, as listed by the source): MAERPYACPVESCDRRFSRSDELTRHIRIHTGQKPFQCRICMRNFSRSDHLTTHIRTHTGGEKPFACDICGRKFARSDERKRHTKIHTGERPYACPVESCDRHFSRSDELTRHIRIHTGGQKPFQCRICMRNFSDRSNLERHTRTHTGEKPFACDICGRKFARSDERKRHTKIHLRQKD
Assay: EMSA; apparent Kd
Details: label: 32P
Experimental: DNA binding reactions contain the appropriate zinc-finger peptide, binding site and 1 μg competitor DNA (poly dI-dC) in a total volume of 10 μl, which contains: 20 mM Bis-tris propane (pH 7.0), 100 mM NaCl, 5 mM MgCl₂, 50 μM ZnCl₂, 5 mM DTT, 0.1 mg/ml BSA, 0.1% Nonidet P40. […] Dissociation constants are determined in parallel to the calculation of active peptide concentration. […] Samples are run on 7% native polyacrylamide gels and the radioactive signals quantitated by PhosphorImager analysis. […]
Exercise: state measured pKd for each of the binders provided.
Conceptually, pKd converts a concentration in mol/L into minus its log10.

Enquiry: GET /values?readout=pKd&item= bs4 (123///56) (dsDNA) DNA 1: GCGGACATCGCGTGGGCG DNA 2: CGCCCACGCGATGTCCGC
Return: 9.05

Enquiry: Param item = bs2 (123/56) (dsDNA) DNA 1: GCGGACTGCGTGGGCG DNA 2: CGCCCACGCAGTCCGC ; retrieve measured pKd.
Return: 9.20

Enquiry: Which pKd reading was recorded for the binder bs3 (123//56) (dsDNA) DNA 1: GCGGACTCGCGTGGGCG DNA 2: CGCCCACGCGAGTCCGC ?
Return: 9.57

Enquiry: Any idea what pKd was measured for bs1 (12356) (dsDNA) DNA 1: GCGGACGCGTGGGCG DNA 2: CGCCCACGCGTCCGC ?
Return: 7.66
